Experiment: Kinetic aqueous solubility of the compound in pH 6.8
Type: physicochemical
Settings: read-out: Kinetic_solubility
Recorded measurements of solubility kinetic, one per entry

Illustrative cases are given below, each with its answer.
Cn1cc(Nc2nccc(-c3ccc4c(c3)CCNC[C@H]4NC(=O)c3cn(C(C)(C)C)nn3)n2)cn1: > 50 µg/mL
Cc1c(CNC(=O)N2CC(OC(C)C)C2)ccc(-c2ccnc(Nc3cnn(C)c3)n2)c1F: > 10 µg/mL
CC(C)OC1CN(C(=O)NC2CCCc3cc(-c4ccnc(Nc5cnn(C)c5)n4)ccc32)C1 (stereo not given): > 30 µg/mL
Cc1cc(-c2ccnc(Nc3cnn(C)c3)n2)ccc1CNC(=O)N1CC(OC(C)C)C1: < 30 µg/mL

In: Find the recorded solubility kinetic belonging to COCCN1CC[C@@H](NC(=O)c2cn(C(C)(C)C)nn2)c2ccc(-c3ccnc(Nc4cnn(C)c4)n3)cc2C1 and report it.
Out: > 50 µg/mL

The measurements presented in this section are drawn from ChEMBL document CHEMBL5042486.
